Taken from patent US5703130A.

- System: Human promyelocytic leukemia HL-60 cells
- Assay Text: Cell differentiation of HL-60 cells by nitroblue tetrazolium (NBT) reduction
- Type: cell-based
- Setup Conditions: 50% differentiation or effective concentration, read-out: NBT ED50
Assay Endpoint: EC50

Chem Smiles | Val
CC(=O)Nc1ccc(OC(=O)c2ccc(OC(=O)c3cc(C(C)(C)C)c(O)c(C(C)(C)C)c3)cc2)cc1 | 8 µM
CC(C)(C)c1cc(C(=O)Oc2ccc(C(=O)Nc3ccc(C(=O)O)cc3)cc2)cc(C(C)(C)C)c1O | > 10 µM
CC(=O)Nc1ccc(OC(=O)c2ccc(NC(=O)c3cc(C(C)(C)C)c(O)c(C(C)(C)C)c3)cc2)cc1 | > 10 µM
CC(C)(C)c1cc(C(=O)Nc2ccc(C(=O)Nc3ccc(O)cc3)cc2)cc(C(C)(C)C)c1O | > 1 µM
CCOC(=O)c1ccc(NC(=O)c2ccc(OC(=O)c3cc(C(C)(C)C)c(O)c(C(C)(C)C)c3)cc2)cc1 | > 10 µM
COc1c(C(C)(C)C)cc(C(=O)C=Cc2ccc(C(=O)Oc3ccc(NC(C)=O)cc3)cc2)cc1C(C)(C)C | > 1 µM
COc1c(C(C)(C)C)cc(C(=O)Nc2ccc(C(=O)Oc3ccc(NC(C)=O)cc3)cc2)cc1C(C)(C)C | 1.2 µM

###

- System: cancer cells
- Assay Text: MTT assay for inhibitory effect on cancer cells (monolayer culture)
- Type: cell-based
- Setup Conditions: 120 h, 5 day culture, 1200 tumor cells per well, cell line not named, read-out: MTT ED50
pIC50: −log10 of the molar value.
Assay Endpoint: pIC50

Molecule | Assay Endpoint | Qualifier Symbol | Val
COc1c(C(C)(C)C)cc(C(=O)Nc2ccc(C(=O)Oc3ccc(NC(C)=O)cc3)cc2)cc1C(C)(C)C [I-J] | pIC50 | = | 6.04
CC(=O)Nc1ccc(OC(=O)c2ccc(OC(=O)c3cc(C(C)(C)C)c(O)c(C(C)(C)C)c3)cc2)cc1 [I-Q] | pIC50 | = | 5.22
COc1c(C(C)(C)C)cc(C(=O)C=Cc2ccc(C(=O)Oc3ccc(NC(C)=O)cc3)cc2)cc1C(C)(C)C [I-N] | pIC50 | = | 5.70
CC(C)(C)c1cc(C(=O)Nc2ccc(C(=O)Nc3ccc(O)cc3)cc2)cc(C(C)(C)C)c1O [I-A] | pIC50 | = | 5.40
CCOC(=O)c1ccc(NC(=O)c2ccc(OC(=O)c3cc(C(C)(C)C)c(O)c(C(C)(C)C)c3)cc2)cc1 [I-R] | pIC50 | < | 5.00
CC(C)(C)c1cc(C(=O)Oc2ccc(C(=O)Nc3ccc(C(=O)O)cc3)cc2)cc(C(C)(C)C)c1O [I-S] | pIC50 | = | 5.80
CC(=O)Nc1ccc(OC(=O)c2ccc(NC(=O)c3cc(C(C)(C)C)c(O)c(C(C)(C)C)c3)cc2)cc1 [I-B] | pIC50 | = | 4.96
